- EXPERIMENTAL TARGET: human NAMPT enzyme (His-hNAMPT) (Homo sapiens (Human), UniProt P43490)
- Sequence (P43490 whole entry): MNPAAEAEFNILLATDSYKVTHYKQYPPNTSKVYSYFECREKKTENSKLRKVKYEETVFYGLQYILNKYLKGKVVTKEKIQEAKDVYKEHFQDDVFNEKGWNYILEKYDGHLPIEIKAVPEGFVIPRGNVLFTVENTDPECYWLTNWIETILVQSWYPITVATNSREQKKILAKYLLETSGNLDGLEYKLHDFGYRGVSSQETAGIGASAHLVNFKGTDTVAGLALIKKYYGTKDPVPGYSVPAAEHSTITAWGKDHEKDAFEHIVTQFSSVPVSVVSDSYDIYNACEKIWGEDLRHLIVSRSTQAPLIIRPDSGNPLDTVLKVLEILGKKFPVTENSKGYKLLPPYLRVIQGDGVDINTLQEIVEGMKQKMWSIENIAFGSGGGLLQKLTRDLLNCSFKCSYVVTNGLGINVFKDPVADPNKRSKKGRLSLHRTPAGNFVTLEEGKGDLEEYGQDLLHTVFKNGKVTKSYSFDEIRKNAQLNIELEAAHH
- ASSAY: NAMPT enzymatic inhibition assay (fluorescence, NADH product)
- Format: biochemical
- CONDITION DETAILS: [HDB]; read-out: NAMPT IC50 (μM) [HDB]
Please provide measured IC50 for the entries that follow.

As a guide, the following entries are already answered.
O=C(NCC[C@H]1[C@@H]2CN(c3ccc(F)cc3)C(=O)[C@H]12)c1cc(-c2cccnc2)on1 (stereo in doubt) | 0.01 to 0.49 µM
O=C(/C=C/c1cccnc1)NCC[C@@H]1[C@H]2CN(c3nc(N4CCOCC4)ncc3F)C[C@@H]12 | < 0.01 µM
O=C(NCC[C@@H]1[C@H]2CN(c3nc(Cl)ncc3F)C[C@@H]12)c1ccc2nccn2c1 | 0.01 to 0.49 µM
O=C(/C=C/c1cccnc1)NCC[C@@H]1[C@H]2CN(c3ccnc4ccccc34)C[C@@H]12 | 0.01 to 0.49 µM
NC(=O)c1cccc(N2C[C@@H]3[C@@H](CCNC(=O)/C=C/c4cccnc4)[C@@H]3C2)c1 | 0.01 to 0.49 µM

Would you be so kind as to report IC50 for each listed record?
1. O=C(/C=C/c1cccnc1)NCC[C@@H]1[C@H]2CN(c3nc(-c4ncco4)ncc3F)C[C@@H]12
2. CC(C)(C)Oc1cccc(N2C[C@@H]3[C@@H](CCNC(=O)/C=C/c4cccnc4)[C@@H]3C2)c1

Result:
1: < 0.01 µM; 2: < 0.01 µM

* * *

- EXPERIMENTAL TARGET: human NAMPT enzyme (His-hNAMPT) (Homo sapiens (Human))
- ASSAY: NAMPT enzymatic inhibition assay (fluorescence, NADH product)
- Assay type: biochemical
- CONDITION DETAILS: [BPS]; read-out: NAMPT IC50 (μM) [BPS]
READOUT LABEL: IC50

Here is how some compounds turned out for IC50.
COc1cccc(N2C[C@@H]3[C@@H](CCNC(=O)c4cc5ccncc5o4)[C@@H]3C2)c1 | 0.01 to 0.49 µM
CC(C)(C)OC(=O)N1C[C@@H]2[C@@H](CCNC(=O)N3CC(c4cccnc4)C3)[C@@H]2C1 | 0.01 to 0.49 µM
Nc1ccc(/C=C/C(=O)NCC[C@@H]2[C@H]3CN(Cc4ccccc4)C(=O)[C@@H]23)cn1 (racemic) | 0.01 to 0.49 µM

Dear colleague, could you please provide IC50 for the compounds listed below?
1. O=C(NCC[C@@H]1[C@H]2CN(C(=O)OC3CCOCC3)C[C@@H]12)c1cc2cnccc2[nH]1
2. Nc1ccc(/C=C/C(=O)NCC[C@@H]2[C@H]3CN(C(=O)OC4CCCC4)C[C@@H]23)cn1
3. Nc1ccc(/C=C/C(=O)NCC[C@@H]2[C@H]3CN(C(=O)c4cccc(F)c4)C[C@@H]23)cn1
4. CC(C)(C)OC(=O)N1C[C@@H]2[C@@H](CCNC(=O)c3ccc4nccn4c3)[C@@H]2C1

Result:
1: 0.01 to 0.49 µM; 2: 0.01 to 0.49 µM; 3: 0.01 to 0.49 µM; 4: 0.01 to 0.49 µM

* * *

- EXPERIMENTAL TARGET: UniProtKB P43490
- ASSAY: NAMPT enzymatic inhibition assay (fluorescence, NADH product)
- Assay type: biochemical
- CONDITION DETAILS: [HDB]; read-out: NAMPT IC50 (μM) [HDB]
So I've got a bunch of compounds here, and I need their IC50 values.

O=C(/C=C/c1ccccc1)NCC[C@@H]1[C@H]2CN(c3nc(Cl)ncc3F)C[C@@H]12 [Example 210] | 0.01 to 0.49 µM
CSc1cccc(N2C[C@@H]3[C@@H](CCNC(=O)/C=C/c4cccnc4)[C@@H]3C2)c1 [Example 151] | < 0.01 µM
O=C(NCC[C@@H]1[C@H]2CN(C(=O)c3ccccc3)C[C@@H]12)c1cc2ccncc2o1 [Example 30] | 0.01 to 0.49 µM

Provide each entry's IC50 from the list below.
1. O=C(/C=C/c1cccnc1)NCC[C@@H]1[C@H]2CN(C(CO)c3ccccc3)C[C@@H]12 (stereo partly drawn) [Example 286]
2. O=C(O)COc1ncc(F)c(N2C[C@@H]3[C@@H](CCNC(=O)/C=C/c4cccnc4)[C@@H]3C2)n1 [Example 282]
3. O=C(NCC[C@@H]1[C@H]2CN(c3nc(Cl)ncc3F)C[C@@H]12)c1cnc2[nH]ncc2c1 [Example 224]
4. COc1nc(N2C[C@@H]3[C@@H](CCNC(=O)/C=C/c4cccnc4)[C@@H]3C2)ncc1F [Example 173]
5. O=C(NCC[C@@H]1[C@H]2CN(c3nc(Cl)ncc3F)C[C@@H]12)N1Cc2cccnc2C1 [Example 227]

Result:
1. 0.01 to 0.49 µM
2. 0.01 to 0.49 µM
3. 0.01 to 0.49 µM
4. 0.01 to 0.49 µM
5. 0.01 to 0.49 µM

* * *

Assign IC50 to each entry below.
- EXPERIMENTAL TARGET: human NAMPT enzyme (His-hNAMPT) (Homo sapiens (Human), UniProt P43490)
- ASSAY: NAMPT enzymatic inhibition assay (fluorescence, NADH product)
- Format: biochemical
- CONDITION DETAILS: [BPS]; read-out: NAMPT IC50 (μM) [BPS]

CC(C)(C)NC(=O)N1C[C@@H]2[C@@H](CCNC(=O)c3ccc4nccn4c3)[C@@H]2C1 | 0.01 to 0.49 µM
CC(C)(C)OC(=O)N1C[C@@H]2[C@@H](CCNC(=O)/C=C/c3ccc(N)nc3)[C@@H]2C1 | 0.01 to 0.49 µM
O=C(/C=C/c1cccnc1)NCC[C@@H]1[C@H]2CN(c3nc4ccccc4s3)C[C@@H]12 | 0.01 to 0.49 µM
O=C(/C=C/c1cccnc1)NCC[C@@H]1[C@H]2CN(c3ccccc3)C[C@@H]12 | 0.01 to 0.49 µM
Nc1ccc(/C=C/C(=O)NCC[C@@H]2[C@H]3CN(c4nc5ccccc5s4)C[C@@H]23)cn1 | 0.01 to 0.49 µM
CC1(OC(=O)N2C[C@@H]3[C@@H](CCNC(=O)/C=C/c4ccc(N)nc4)[C@@H]3C2)COC1 | 0.01 to 0.49 µM

For every item in the list below, what is its measured IC50?
1. O=C(NCC[C@@H]1[C@H]2CN(C(=O)OC3CCOCC3)C[C@@H]12)c1cc2ccncc2o1
2. O=C(NCC[C@@H]1[C@H]2CN(S(=O)(=O)C3CCOCC3)C[C@@H]12)c1cc2cnccc2[nH]1
3. O=C(/C=C/c1cccnc1)NCC[C@@H]1[C@H]2CN(c3ccc4ccccc4c3)C[C@@H]12

Result:
0.01 to 0.49 µM
0.5 to 0.99 µM
0.01 to 0.49 µM

Report IC50 for every entry below.
1. CC1(OC(=O)N2C[C@@H]3[C@@H](CCNC(=O)/C=C/c4cnc(N)nc4)[C@@H]3C2)COC1
2. CN1CCC(c2ccc(C(=O)N3C[C@@H]4[C@@H](CCNC(=O)/C=C/c5ccc(N)nc5)[C@@H]4C3)cc2)CC1
3. O=C(NCC[C@@H]1[C@H]2CN(c3ccccc3)C(=O)[C@@H]12)c1cc2ccncc2o1 (racemic)
4. O=C(/C=C/c1cccnc1)NCC[C@@H]1[C@H]2CN(c3ncccn3)C[C@@H]12

Result:
["1 to 29 µM", "0.01 to 0.49 µM", "0.5 to 0.99 µM", "0.01 to 0.49 µM"]

Dear reader, for each entry below, please note its IC50.
1. O=C(/C=C/c1cccnc1)NCC[C@@H]1[C@H]2CN(C(=O)c3ccccc3)C[C@@H]12
2. CC(C)(C)NC(=O)N1C[C@@H]2[C@@H](CCNC(=O)c3cc(-c4cccnc4)on3)[C@@H]2C1
3. CC(C)(C)OC(=O)N1C[C@H]2C[C@@H](CCNC(=O)COc3cccnc3)C[C@H]2C1
4. Nc1ccc(/C=C/C(=O)NCC[C@@H]2[C@H]3CN(C(=O)C4CCOCC4)C[C@@H]23)cn1

Result:
1: 0.01 to 0.49 µM; 2: < 0.01 µM; 3: 0.5 to 0.99 µM; 4: 0.01 to 0.49 µM

I would be grateful if you could provide IC50 for each of the following entries.
1. CC(C)(C)OC(=O)N1C[C@@H]2[C@@H](CCNC(=O)c3ccc4sccc4c3)[C@@H]2C1
2. Cc1nc(C)c(C(=O)N2C[C@@H]3[C@@H](CCNC(=O)c4cc5cnccc5[nH]4)[C@@H]3C2)o1
3. O=C(NCC[C@@H]1[C@H]2CN(C(=O)CC3CCOCC3)C[C@@H]12)c1cc(-c2cccnc2)on1
4. Cc1nc(C)c(C(=O)N2C[C@@H]3[C@@H](CCNC(=O)c4cc5ccncc5o4)[C@@H]3C2)o1
5. COc1cccc(N2C[C@@H]3[C@@H](CCNC(=O)/C=C/c4cccnc4)[C@@H]3C2)c1

Result:
1: 0.01 to 0.49 µM; 2: 0.01 to 0.49 µM; 3: 0.01 to 0.49 µM; 4: 0.01 to 0.49 µM; 5: 0.01 to 0.49 µM
